- System: HEL
- experiment_summary: Effective concentration required to inhibit human cytomegalo virus AD-169 induced cytopathicity in HEL fibroblast cell line after 7 days of postinfection
- Assay type: functional, cell-based
- condition_parameters: 168 h
So basically: is EC50 under 20 µM? Then condition met. Not under? Then condition not met.

Example cases with answers are listed next.
1. COC(=O)[C@]1(Cc2ccccc2)CC(=O)N1C(=O)N[C@@H](C)c1ccccc1	condition not met
2. COC(=O)N1CCC1(Cc1ccccc1)C(=O)N[C@@H](C)C(N)=O (some centres undefined)	condition not met
3. C[C@H](NC(=O)C1(Cc2ccccc2)CCN1C(=O)OCc1ccccc1)C(N)=O (some centres undefined)	condition not met

# input I wonder whether "Nc1nc2c(ncn2COCCO)c(=O)[nH]1" has EC50 below 20 µM. Can you tell?
# output condition met

# input Find out if reported EC50 for C[C@H](NC(=O)C1(Cc2ccccc2)CCN1C(=O)OCc1ccccc1)C(=O)O (some centres undefined) is less than 20 µM
# output condition not met

---

EC50 overview
- Tested on: HEL
- experiment_summary: Effective concentration required to reduce Varicella-Zoster virus OKA(TK) plaque formation after 5 days in HEL fibroblast cell line
- Format: functional, cell-based
- condition_parameters: Homo sapiens, 120 h

Record excerpt, results attached:
1. Nc1nc2c(ncn2COCCO)c(=O)[nH]1	7.1 µM
2. O=C(OCc1ccccc1)N1CCC1(Cc1ccccc1)C(=O)NC1CCCCC1 (stereo not drawn)	7.8 µM

What the record says about "C[C@@H](NC(=O)N1C(=O)C[C@@]1(Cc1ccccc1)C(=O)OC(C)(C)C)c1ccccc1" : EC50 is > 50 µM

EC50 reported for this compound "C[C@H](NC(=O)N1C(=O)C[C@@]1(Cc1ccccc1)C(=O)O)c1ccccc1" : > 200 µM

The reported value for "COC(=O)[C@@]1(Cc2ccccc2)CC(=O)N1C(=O)N[C@@H](C)c1ccccc1" in terms of EC50 is > 50 µM

The compound identified as "COC(=O)[C@@]1(Cc2ccccc2)CCN1C(=O)N[C@@H](C)c1ccccc1" registered its EC50 at > 50 µM

EC50 recorded for this compound, "C[C@@H](NC(=O)N1C(=O)C[C@]1(Cc1ccccc1)C(=O)OC(C)(C)C)c1ccccc1" , is > 50 µM

get_value(item= "C[C@H](NC(=O)N1C(=O)C[C@@]1(Cc1ccccc1)C(=O)OC(C)(C)C)c1ccccc1" , readout=EC50) returns 37 µM

---

- Tested on: HEL
- experiment_summary: Effective concentration required to reduce Varicella-Zoster virus OKA(TK) plaque formation after 5 days in HEL fibroblast cell line
- Type: functional, cell-based
- condition_parameters: Homo sapiens, 120 h
Recorded EC50, one value per entry.

Use the examples below as a reference point.
1. CC(C)(C)OC(=O)[C@]1(Cc2ccccc2)CC(=O)N1C(=O)Nc1ccccc1	33 µM
2. COC(=O)N1CCC1(Cc1ccccc1)C(=O)N[C@@H](C)C(N)=O (stereo not given in full)	> 400 µM
3. CNC(=O)[C@H](C)NC(=O)C1(Cc2ccccc2)CCN1C(=O)OCc1ccccc1 (stereo not given in full)	> 50 µM
4. COC(=O)[C@]1(Cc2ccccc2)CCN1C(=O)N[C@@H](C)c1ccccc1	50 µM
5. CC(C)(C)NC(=O)C1(Cc2ccccc2)CCN1C(=O)OCc1ccccc1 (stereo not given)	> 3.2 µM
6. COC(=O)[C@H](C)NC(=O)C1(Cc2ccccc2)CCN1C(=O)OCc1ccccc1 (stereo not given in full)	> 80 µM
7. C[C@H](NC(=O)N1C(=O)C[C@]1(Cc1ccccc1)C(=O)OC(C)(C)C)c1ccccc1	> 50 µM
8. C[C@@H](NC(=O)N1CCC1(Cc1ccccc1)C(=O)OC(C)(C)C)c1ccccc1 (stereo not given in full)	36 µM

EC50 recorded for this compound, "COC(=O)[C@]1(Cc2ccccc2)CC(=O)N1C(=O)N[C@@H](C)c1ccccc1" , is > 50 µM

Lab book: EC50 of CC(C)(C)OC(=O)C1(Cc2ccccc2)CCN1C(=O)OCc1ccccc1 (stereo not given) noted as > 2 µM

---

- Test system: HEL
- experiment_summary: Effective concentration required to inhibit human cytomegalo virus AD-169 induced cytopathicity in HEL fibroblast cell line after 7 days of postinfection
- Type: functional, cell-based
- condition_parameters: 168 h
measured_property: EC50 (µM)
Reply numerically in µM, unit not repeated.

Consider the worked cases shown below.
1. CNC(=O)[C@H](C)NC(=O)C1(Cc2ccccc2)CCN1C(=O)OCc1ccccc1 (some centres undefined)	7.4
2. O=C(OCc1ccccc1)N1CCC1(Cc1ccccc1)C(=O)NC1CCCCC1 (centres undefined)	5.9
3. CC(C)(C)NC(=O)C1(Cc2ccccc2)CCN1C(=O)OCc1ccccc1 (centres undefined)	5.5
4. Nc1ccn(C[C@@H](CO)OCP(=O)(O)O)c(=O)n1	0.6
5. C[C@H](NC(=O)C1(Cc2ccccc2)CCN1C(=O)OCc1ccccc1)C(=O)OC(C)(C)C (some centres undefined)	16
6. C[C@@H](NC(=O)N1CCC1(Cc1ccccc1)C(=O)OC(C)(C)C)c1ccccc1 (some centres undefined)	40
7. CC(C)(C)OC(=O)[C@]1(Cc2ccccc2)CC(=O)N1C(=O)Nc1ccccc1	50

Next molecule, please.
Assay HEL, sample CC(C)(C)OC(=O)C1(Cc2ccccc2)CCN1C(=O)OCc1ccccc1 (centres undefined) , EC50 read: 0.7

---

- Test system: HEL
- experiment_summary: Effective concentration required to reduce Varicella-Zoster virus OKA(TK) plaque formation after 5 days in HEL fibroblast cell line
- Format: functional, cell-based
- condition_parameters: Homo sapiens, 120 h
measured_property: pEC50
# pEC50 = -log10(concentration in molar units)

Bench note, HEL: CC(C)(C)OC(=O)C1(Cc2ccccc2)CC(=O)N1C(=O)OCc1ccccc1 (stereo not given) , pEC50 reads 4.92

Response field pEC50 (HEL) for item C[C@H](NC(=O)C1(Cc2ccccc2)CCN1C(=O)OCc1ccccc1)C(=O)OC(C)(C)C (stereo not given in full) : 4.80

---

- Test system: HEL
- experiment_summary: Effective concentration required to inhibit human cytomegalo virus AD-169 induced cytopathicity in HEL fibroblast cell line after 7 days of postinfection
- Format: functional, cell-based
- condition_parameters: 168 h
pEC50: −log10 of the molar value.
measured_property: pEC50

1. COC(=O)[C@@]1(Cc2ccccc2)CC(=O)N1C(=O)N[C@@H](C)c1ccccc1	< 4.30
2. O=c1[nH]c(=O)n([C@H]2C[C@H](O)[C@@H](CO)O2)cc1/C=C/Br	< 4.00
3. COC(=O)[C@@]1(Cc2ccccc2)CCN1C(=O)N[C@@H](C)c1ccccc1	< 4.70
4. COC(=O)[C@]1(Cc2ccccc2)CCN1C(=O)N[C@@H](C)c1ccccc1	< 4.70
5. CC(C)(C)OC(=O)N1C(=O)CC1(Cc1ccccc1)C(=O)OC(C)(C)C (stereo unspecified)	< 3.70

Entry COC(=O)[C@H](C)NC(=O)C1(Cc2ccccc2)CCN1C(=O)OCc1ccccc1 (stereo partly specified) ; pEC50 = < 4.10

---

- System: HEL
- experiment_summary: Effective concentration required to reduce Varicella-Zoster virus OKA(TK) plaque formation after 5 days in HEL fibroblast cell line
- Type: functional, cell-based
- condition_parameters: Homo sapiens, 120 h
measured_property: EC50

Consider the reported EC50 for these molecules:
1) C[C@H](NC(=O)C1(Cc2ccccc2)CCN1C(=O)OCc1ccccc1)C(=O)O (stereo partly drawn)	> 80 µM
2) C[C@@H](NC(=O)N1C(=O)C[C@]1(Cc1ccccc1)C(=O)O)c1ccccc1	> 200 µM

Now turn to the next molecule.
Value of measured EC50 for the entry C[C@H](NC(=O)C1(Cc2ccccc2)CCN1C(=O)OCc1ccccc1)C(N)=O (stereo partly drawn) : > 80 µM

Numbers sourced from ChEMBL document CHEMBL1143578.
